# assay name: physchem
# measurement conditions: 0.5 m benzenesulfonic acid, organic solvent or mixture, 30° C., aqueous 0.5 M benzenesulfonic acid solution
solubility reference

[
  {
    "molecule": "N[C@@H](C(=O)O)c1ccc(O)cc1.O=S(=O)(O)c1ccccc1 [p-hydroxyphenylglycine benzenesulfonate, D-enantiomer]",
    "unit abbrev": "mg/mL",
    "solubility": 110
  },
  {
    "molecule": "N[C@H](C(=O)O)c1ccc(O)cc1.O=S(=O)(O)c1ccccc1 [p-hydroxyphenylglycine benzenesulfonate, L-enantiomer]",
    "unit abbrev": "mg/mL",
    "solubility": 110
  },
  {
    "molecule": "NC(C(=O)O)c1ccc(O)cc1.O=S(=O)(O)c1ccccc1 (racemic)",
    "unit abbrev": "mg/mL",
    "solubility": 241
  }
]

The reported measurements were obtained from patent US4309362A.
